Biological target: human M4 muscarinic acetylcholine receptor (Homo sapiens, UniProt P08173)
Sequence (P08173 whole entry): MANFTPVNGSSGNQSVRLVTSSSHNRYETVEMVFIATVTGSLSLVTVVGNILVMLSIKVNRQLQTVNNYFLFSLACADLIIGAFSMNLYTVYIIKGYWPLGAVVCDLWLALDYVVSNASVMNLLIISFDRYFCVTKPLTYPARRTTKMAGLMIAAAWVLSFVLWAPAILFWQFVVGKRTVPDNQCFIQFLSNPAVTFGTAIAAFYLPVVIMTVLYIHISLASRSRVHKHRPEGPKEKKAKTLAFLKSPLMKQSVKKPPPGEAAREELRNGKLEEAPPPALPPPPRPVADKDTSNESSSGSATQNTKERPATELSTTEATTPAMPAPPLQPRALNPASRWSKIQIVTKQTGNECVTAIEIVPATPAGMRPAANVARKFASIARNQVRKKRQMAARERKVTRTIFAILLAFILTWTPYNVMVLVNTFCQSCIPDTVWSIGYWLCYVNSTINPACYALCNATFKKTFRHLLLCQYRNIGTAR
Test: human FLIPR-based M4 PAM assay (CHO-K1 cells with human M4 receptor and Gaqi5, calcium dye fluorescence)
Conditions: inflection point (IP) of dose response curve, acetylcholine added at 20% of maximum response, read-out: M4 FLIPPR Hu IP
Recorded Metric: EC50 (µM)

COc1cc2ccc(-c3nc(C(F)F)ccc3-c3cnn(C[C@H]4CC[C@H](F)C4)c3)cc2nn1 [Example 123]    0.063

I = O=C1c2cc(-c3ncccc3-c3cnn(CC4(F)CCCC4)c3)ccc2CN1CC1CCC1 [Example 140]
II = FC(F)(F)c1ccc(-c2cnn(CC3CCCC3)c2)c(-c2ccc3cccnc3c2)n1 [Example 104]
III = N#Cc1ccc(-c2cnn(CC3C[C@@H](F)[C@H](F)C3)c2)c(-c2ccc3cccnc3c2)n1 [Example 84]
Prompt: Parameters: sort_field (EC50), sort_dir (desc). To answer, write out the labels according to the requested order.
Response: I, III, II
(I: 0.068 µM, III: 0.033 µM, II: 0.02 µM)

P = COc1cc2ccc(-c3nc(C#N)ccc3-c3cnn(C[C@H]4CC[C@H](F)C4)c3)cc2nn1 [Example 67]
Q = Cn1cnc2cc(-c3nc(C#N)c(F)cc3-c3cnn(CC4(C)CCCC4)c3)cnc21 [Example 85]
R = Cc1cn2ccc(-c3nc(C#N)c(F)cc3-c3cnn(CC4(C)CCCC4)c3)cc2n1 [Example 88]
S = c1cnc2cc(-c3nc(-n4cccn4)ccc3-c3cnn(CC4CCCC4)c3)ccc2c1 [Example 167]
Prompt: rank_up(items): orders items by reported EC50 in ascending numerical order. Would you mind listing the labels in the order requested?
Response: R, Q, P, S
(R: 0.024 µM, Q: 0.037 µM, P: 0.064 µM, S: 0.098 µM)

A = Cc1ccc(-c2cnn(CC3C[C@@H](F)[C@@H](F)C3)c2)c(-c2ccc3cccnc3c2)n1 (mixture of isomers) [Example 27]
B = COc1cc2ccc(-c3nc(C#N)ccc3-c3cnn(CC4(F)CCCC4)c3)cn2n1 [Example 64]
C = N#Cc1ccc(-c2cnn(CC3CCCC3)c2)c(-c2ccc3ccnn3c2)n1 [Example 38]
Prompt: List the 3 entries from lowest EC50 to highest EC50 value. Dear reader, please state the labels in the requested order.
Response: C, B, A

I = Cc1nnc2cc(-c3nc(C#N)ccc3-c3cnn(CC4(F)CCCC4)c3)ccn12 [Example 44]
II = Cc1cn2ccc(-c3ncccc3-c3cnn(CC4C[C@H](F)[C@@H](F)C4)c3)cc2n1 [Example 4]
Prompt: Dear colleague, could you let me know whether I or II has the lower recorded EC50? Thanks. Label of pick, please.
Response: I
(I: 0.018 µM, II: 0.063 µM)

====

Biological target: human M4 muscarinic acetylcholine receptor (Homo sapiens, UniProt P08173)
Assay: human FLIPR-based M4 PAM assay (CHO-K1 cells with human M4 receptor and Gaqi5, calcium dye fluorescence)
Details: inflection point (IP) of dose response curve, acetylcholine added at 20% of maximum response, read-out: M4 FLIPPR Hu IP
pEC50: −log10 of the molar value.
Recorded Metric: pEC50

A selection of reference data follows.
CC1(Cn2cc(-c3ccc(C#N)nc3-c3ccn4ncnc4c3)cn2)CCCC1    7.51
N#Cc1ccc(-c2cnn(CC3(F)CCCC3)c2)c(-c2ccn3cc(C4CC4)nc3c2)n1    7.44

P = CC1(Cn2cc(-c3ccc(C#N)nc3-c3ccc4cc(F)nnc4c3)cn2)CCCC1
Q = Cc1ccc(-c2cnn(CC3CCCC3)c2)c(-c2ccc3c(c2)nc(Cl)n3C)n1
R = CC1(Cn2cc(-c3cc(F)c(C#N)nc3-c3ccn4cc(CF)nc4c3)cn2)CCCC1
Prompt: Please order the records by their reported pEC50, lowest number first. Answer by naming the labels in the order asked.
Response: Q, P, R

A = Cc1ccc(-c2cnn(CC3(F)CCCC3)c2)c(-c2ccc3c(c2)C(=O)NC3)n1
B = Cc1nc2cc(-c3nc(C#N)c(C)cc3-c3cnn(CC4(F)CCCC4)c3)ccn2n1
Prompt: Looking at A and B , which one comes out lower in pEC50 terms? Answer = label.
Response: B
